Where do the numbers come from? From ChEMBL document CHEMBL1124753.

Catalogue of Ki readings, one per entry.
# Tested target: Human immunodeficiency virus type 1 protease (Human immunodeficiency virus 1, UniProt Q72874)
# Procedure text: Inhibitory activity against HIV Protease was measured at pH 6.4 and 37 degrees C
*1 amine or outer side, *2 acyl side, *3 side chain or, on linkers, in order; H or OH if unused. Where a SMILES comes first, the peptide text is derived from it. [ ]: non-standard residue; d: D form. Ahppa(3S,4S) = O=C(C[C@H](O)[C@H](Cc1ccccc1)N[*:1])[*:2]; X1 = CC(C)C[C@H](N[*:1])[C@@H](O)CN1CCC[C@H]1C(=O)[*:2]
Recorded endpoint: Ki (nM)

Compound	Recorded endpoint	Bound type	Numeric readout
CC[C@H](C)[C@H](NC(=O)C[C@H](O)[C@H](Cc1ccccc1)NC(=O)[C@H](CC(N)=O)NC(=O)[C@H](CC(C)C)NC(=O)[C@H](CO)NC(C)=O)C(=O)N[C@H](C(=O)OC)C(C)C (Ac-SLN[Ahppa(3S,4S)]IV-OMe)	Ki	=	8000
CC[C@H](C)[C@H](NC(=O)[C@@H]1CCCN1C[C@H](O)[C@H](CC(C)C)NC(=O)[C@H](CC(N)=O)NC(=O)[C@H](CC(C)C)NC(C)=O)C(=O)OC	Ki	>	10000
CC[C@H](C)[C@H](NC(=O)[C@@H]1CCCN1C[C@H](O)[C@H](CC(C)C)NC(=O)[C@H](CC(N)=O)NC(=O)[C@H](CC(C)C)NC(=O)[C@H](CO)NC(C)=O)C(=O)OC (Ac-SLN[X1]I-OMe)	Ki	=	980
CC[C@H](C)[C@H](NC(=O)[C@@H]1CCCN1C[C@H](O)[C@H](CC(C)C)NC(=O)[C@H](CC(N)=O)NC(=O)[C@H](CC(C)C)NC(=O)[C@H](CO)NC(C)=O)C(=O)N[C@H](C(=O)OC)C(C)C (Ac-SLN[X1]IV-OMe)	Ki	=	118
